Target: VEGF-A165/NRP-1 complex (Homo sapiens, UniProt O14786)
Construct: purchased BioLegend (NRP-1); Abcam (biotinylated VEGF-A165)
Assay: competitive ELISA: inhibition of (bt)-VEGF-A165 binding to NRP-1
Conditions: recombinant human NRP-1; mean ± SD of three independent experiments; tested in the concentrations range 100–3.12 μM
Ends that are not written are not given here.
property.measured: pIC50
Conceptually, pIC50 converts a concentration in mol/L into minus its log10.

Item ATWLPPR [Compound A7R, Ala-Thr-Trp-Leu-Pro-Pro-Arg] with VEGF-A165/NRP-1 complex (Homo sapiens, UniProt O14786) - pIC50?
4.95

* * *

# pIC50 annotations
Target: VEGF-A165/NRP-1 complex (Homo sapiens, UniProt O14786)
Construct: Abcam (biotinylated VEGF-A165)
Experiment: competitive ELISA: inhibition of (bt)-VEGF-A165 binding to NRP-1
Conditions: recombinant human NRP-1; mean ± SD of three independent experiments; tested in the concentrations range 100–3.12 μM
Protocol: Inhibitory activity of the synthesized peptides was measured by a competitive ELISA test, following a protocol similar to the one previously described (Puszko et al. [2019]). […] Nonspecific binding was blocked with 0.5% BSA (BioShop, Canada) in PBS (Bioshop, Canada). […] After the final wash the chemiluminescence was quantified immediately after addition of 100 μl chemiluminescent substrate (SuperSignal ELISA Pico Chemiluminescent Substrate; Pierce Biotechnology, Rockford, IL, USA). […]
Square brackets hold non-standard residues; d marks the D form. Peptide text beside a SMILES is read from it. hArg = N=C(N)NCCCC[C@H](N)C(=O)O; Agb = N=C(N)NCC[C@H](N)C(=O)O; Dap = NC[C@H](N)C(=O)O
pIC50 is defined as minus the log10 of a concentration measured in mol/L.

compound	pIC50
N=C(N)NCCCC[C@H](N)C(=O)NCCCC[C@H](N)C(=O)N[C@@H](CN)C(=O)N1CCC[C@H]1C(=O)N[C@@H](CCCNC(=N)N)C(=O)O [Compound 1, Lys(Har)-Dap-Pro-Arg] (H-K(hArg)[Dap]PR-OH)	5.08

Form field: reported pIC50 of N=C(N)NCCCC[C@H](N)C(=O)NCCCC[C@H](N)C(=O)N[C@@H](CN)C(=O)N1CCC[C@H]1C(=O)N[C@@H](CCNC(=N)N)C(=O)O [Compound 5, Lys(Har)-Dap-Pro-Agb] (H-K(hArg)[Dap]P[Agb]-OH)
4.06

* * *

Biological target: VEGF-A165/NRP-1 complex (Homo sapiens)
Construct: Abcam (biotinylated VEGF-A165)
Sequence (O14786 22-641 limits assumed): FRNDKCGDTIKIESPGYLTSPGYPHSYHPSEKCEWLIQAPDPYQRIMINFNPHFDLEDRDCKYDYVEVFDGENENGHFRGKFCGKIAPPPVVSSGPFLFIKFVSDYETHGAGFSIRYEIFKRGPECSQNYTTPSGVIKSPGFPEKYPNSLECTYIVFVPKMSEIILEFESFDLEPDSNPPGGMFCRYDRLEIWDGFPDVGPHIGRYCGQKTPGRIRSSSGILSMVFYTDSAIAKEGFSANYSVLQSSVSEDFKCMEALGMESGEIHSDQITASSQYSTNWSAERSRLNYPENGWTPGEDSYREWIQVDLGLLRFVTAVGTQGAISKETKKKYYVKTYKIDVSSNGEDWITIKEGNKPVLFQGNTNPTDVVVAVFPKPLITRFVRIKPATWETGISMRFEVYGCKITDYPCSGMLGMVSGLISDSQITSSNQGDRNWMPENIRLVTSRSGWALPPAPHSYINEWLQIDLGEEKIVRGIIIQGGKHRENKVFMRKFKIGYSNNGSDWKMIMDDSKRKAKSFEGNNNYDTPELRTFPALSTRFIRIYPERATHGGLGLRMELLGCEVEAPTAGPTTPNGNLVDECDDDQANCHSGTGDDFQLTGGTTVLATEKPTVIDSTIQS
Test: competitive ELISA: inhibition of (bt)-VEGF-A165 binding to NRP-1
Details: recombinant human NRP-1; mean ± SD of three independent experiments; tested in the concentrations range 100–3.12 μM
Square brackets hold non-standard residues; d marks the D form. Peptide text beside a SMILES is read from it. Phe(4-CH2NH2) = NCc1ccc(C[C@H](N)C(=O)O)cc1; hArg = N=C(N)NCCCC[C@H](N)C(=O)O; Agp = N=C(N)NC[C@H](N)C(=O)O; Dab = NCC[C@H](N)C(=O)O; Dap = NC[C@H](N)C(=O)O
property.measured: IC50 (µM)
Use µM as the unit, but write only the number.

# example entries with known answers
molecule	readout.units	IC50
N=C(N)NCCCC[C@H](N)C(=O)NCCCC[C@H](N)C(=O)N[C@@H](CCN)C(=O)N1CCC[C@H]1C(=O)N[C@@H](Cc1ccc(CN)cc1)C(=O)O [Compound 12, Lys(Har)-Dab-Pro-Phe(4-CH2-NH2)] (H-K(hArg)[Dab]P[Phe(4-CH2NH2)]-OH)	µM	19.8
N=C(N)NCCCC[C@H](NC(=O)[C@@H]1CCCN1C(=O)[C@H](CN)NC(=O)[C@@H](N)CCCCNC(=O)[C@@H](N)CCCCNC(=N)N)C(=O)O [Compound 3, Lys(Har)-Dap-Pro-Har] (H-K(hArg)[Dap]P[hArg]-OH)	µM	29.2
N=C(N)NCCCC[C@H](N)C(=O)NCCCC[C@H](N)C(=O)N[C@@H](CCN)C(=O)N1CCC[C@H]1C(=O)N[C@@H](CNC(=N)N)C(=O)O [Compound 8, Lys(Har)-Dab-Pro-Agp] (H-K(hArg)[Dab]P[Agp]-OH)	µM	165

Below: the item to evaluate.
Look at this molecule and give its reported IC50. N=C(N)NCCCC[C@H](N)C(=O)NCCCC[C@H](N)C(=O)N[C@@H](CCN)C(=O)N1CCC[C@H]1C(=O)N[C@@H](CCCNC(=N)N)C(=O)O [Compound 2, Lys(Har)-Dab-Pro-Arg] (H-K(hArg)[Dab]PR-OH)
4.7
